Assay: protein stability index of a GFP-peptide fusion (yeast GPS) (PSI 1-4); higher = more stable; sorted into four equal gates, so the index is relative within each strain
Details: pdr5∆
Please enter Y where protein stability index is greater than or equal to 3, and N where it is lower.

Solved entries (count: 5):
* LSNSNRFELHGDMTNSD [REC8] | Y
* IMECCQKNDTAAFKDIA [RRP40] | Y
* KRKVLELKKKRKIKRLE [SRP72] | Y
* TKLGFTFTIKEFVSYYY [SNU114] | N
* RLFNVVVQDSQTATQLL [SMC2] | N

Prompt: API: above_or_equal(metric=protein stability index, cutoff=3) for item PAFTFGAQKDNEKKTEE [YJL041W/NSP1]
Completion: N

Prompt: API: above_or_equal(metric=protein stability index, cutoff=3) for item AMSTVTLGVVGKSEKLS [SKI6]
Completion: Y

Prompt: API: above_or_equal(metric=protein stability index, cutoff=3) for item TSRKALEEVSLKWIDTA [RPL3]
Completion: N

Prompt: API: above_or_equal(metric=protein stability index, cutoff=3) for item EEKEEENGDEDEDEDED [QCR6]
Completion: Y

Prompt: API: above_or_equal(metric=protein stability index, cutoff=3) for item EVDKSKLITTYISLLKL [YDL116W/NUP84]
Completion: N

Prompt: API: above_or_equal(metric=protein stability index, cutoff=3) for item IWPAEDALRRGMLAMAS [MED4]
Completion: Y

Prompt: API: above_or_equal(metric=protein stability index, cutoff=3) for item LNDMNTEISGLKNVNKR [SMC3]
Completion: Y

Prompt: API: above_or_equal(metric=protein stability index, cutoff=3) for item LPNQFPLKIHRTPYLTS [SWI1]
Completion: N

----------
Assay: protein stability index of a GFP-peptide fusion (yeast GPS) (PSI 1-4); higher = more stable; sorted into four equal gates, so the index is relative within each strain
Conditions: san1∆
Please enter T where protein stability index is greater than or equal to 3, and F where it is lower.

Solved entries (count: 10):
* KQNNKDFRTRYIDIRTN [MTW1] | F
* DTRITHLLRQTNAFLDS [SNF2] | F
* INQYQLLYNLKNDILTN [SWI1] | F
* KRVTKVKRLLFTIRGFK [MTW1] | F
* EDRNQRIKEMYWKLWID [FAS1] | T
* DVSLLLQRDLFIRLPHW [RGR1] | F
* TQTFNGSIFTHETTFMT [YML031W/NDC1] | F
* SMCGFEVRILPRQRMEE [PRP8] | F
* GSNYNPYFPGGSIAMAR [CYT1] | F
* FNKSAELSRIENEVENI [YCS4] | T

Prompt: API: above_or_equal(metric=protein stability index, cutoff=3) for item RSISKELIVSEEIPINS [SIR3]
Completion: F

Prompt: API: above_or_equal(metric=protein stability index, cutoff=3) for item PITSETAMKKVEDGNIL [RPL25]
Completion: T

----------
Assay: protein stability index of a GFP-peptide fusion (yeast GPS) (PSI 1-4); higher = more stable; sorted into four equal gates, so the index is relative within each strain
Settings: ubr1∆
Please enter True where protein stability index is greater than or equal to 3, and False where it is lower.

- DPKSPTKRSIAIVFEEI [YMR129W/POM152]: False
- HKTFLVANVKDLETLTM [RPL32]: False
- RDKKEKKQAQKQTKLRK [SMB1]: True

Prompt: API: above_or_equal(metric=protein stability index, cutoff=3) for item SVLQLFQSVQLNINNPN [SMC2]
Completion: False

Prompt: API: above_or_equal(metric=protein stability index, cutoff=3) for item YIYLSHETLARSSEEIN [RPN3]
Completion: True

Prompt: API: above_or_equal(metric=protein stability index, cutoff=3) for item SELNEGNLSKREIQIDA [SRB8]
Completion: False

Prompt: API: above_or_equal(metric=protein stability index, cutoff=3) for item EKLINNSDDCMMEEIIN [ECM29]
Completion: True

Prompt: API: above_or_equal(metric=protein stability index, cutoff=3) for item LFSSRRLQAKRLKDVEW [RMP1]
Completion: False

Prompt: API: above_or_equal(metric=protein stability index, cutoff=3) for item DYIEFNITFSEELVSLA [YJL039C/NUP192]
Completion: False

Prompt: API: above_or_equal(metric=protein stability index, cutoff=3) for item IPLNRLSLDSDVKFPSN [SMC3]
Completion: False

Prompt: API: above_or_equal(metric=protein stability index, cutoff=3) for item QGFSKDTFELIKTFLVD [YDL116W/NUP84]
Completion: True

Prompt: API: above_or_equal(metric=protein stability index, cutoff=3) for item EVLEKDAAIVKKYKNKT [YGR119C/NUP57]
Completion: True

Prompt: API: above_or_equal(metric=protein stability index, cutoff=3) for item NAIRIGELFLNESWKSS [SRP72]
Completion: True

Prompt: API: above_or_equal(metric=protein stability index, cutoff=3) for item LLFFNFSHSLTTILSFS [NUT1]
Completion: False

Prompt: API: above_or_equal(metric=protein stability index, cutoff=3) for item KVSPSMCGVIVKQYNKK [SIN4]
Completion: True

Prompt: API: above_or_equal(metric=protein stability index, cutoff=3) for item AKICALLFFNFSHSLTT [NUT1]
Completion: False

Prompt: API: above_or_equal(metric=protein stability index, cutoff=3) for item SCTFWSDKESNAYGFIE [YJL039C/NUP192]
Completion: True

Prompt: API: above_or_equal(metric=protein stability index, cutoff=3) for item SVIPLKGRYAPETGDHV [RRP4]
Completion: False

Prompt: API: above_or_equal(metric=protein stability index, cutoff=3) for item FVSRPDRTMLAPMDFAI [FAS1]
Completion: False

----------
Experiment: protein stability index of a GFP-peptide fusion (yeast GPS) (PSI 1-4); higher = more stable; sorted into four equal gates, so the index is relative within each strain
Settings: doa10∆
Please enter y where protein stability index is greater than or equal to 3, and n where it is lower.

- VPRLFDLVKPKNPKFSN [SMC4]: n

Prompt: API: above_or_equal(metric=protein stability index, cutoff=3) for item QEEFVQFLQLDNDGFSF [ECM29]
Completion: n

Prompt: API: above_or_equal(metric=protein stability index, cutoff=3) for item KERSIVVGRTTRSNPPF [REC8]
Completion: n

Prompt: API: above_or_equal(metric=protein stability index, cutoff=3) for item IADELMKLDDSSKTRNV [ITC1]
Completion: n

Prompt: API: above_or_equal(metric=protein stability index, cutoff=3) for item PEDAQLLLAANTHLGAR [RPS0A]
Completion: n

Prompt: API: above_or_equal(metric=protein stability index, cutoff=3) for item LIYVNPFMLQWGIPLIK [FAS1]
Completion: n

Prompt: API: above_or_equal(metric=protein stability index, cutoff=3) for item SAEYLQMSLEANVVDIT [YJR042W/NUP85]
Completion: n

Prompt: API: above_or_equal(metric=protein stability index, cutoff=3) for item DIPPPAIMKPYYLWTGK [RPO31]
Completion: n

----------
Assay: protein stability index of a GFP-peptide fusion (yeast GPS) (PSI 1-4); higher = more stable; sorted into four equal gates, so the index is relative within each strain
Details: doa10∆
MEASURED_QUANTITY: protein stability index
Answers are plain numbers.

Below, 6 sequences whose answers are already recorded.
* INELTLLVQKRFKYAPG [RPS3] | 2.83
* SYYELETIIFDSELNRA [RRI1] | 2.96
* TKFSNPAIPPVIDLEKI [BRR2] | 2.57
* LNITTVFSHAQTAVTCE [RPS27A] | 2.38
* RKLGLLGDKEDEKQSAK [MTW1] | 3.37
* RDGGLRLGEMERDCVIA [RET1] | 3.15

Prompt: # query: protein stability index of entry RIMSRNFYLKRFISDLL [SWI1]
Completion: 2.32

----------
So I've got a bunch of sequences here, and I need their protein stability index values.
Assay: protein stability index of a GFP-peptide fusion (yeast GPS) (PSI 1-4); higher = more stable; sorted into four equal gates, so the index is relative within each strain
Conditions: pdr5∆
Give bare numbers.

Below, 2 sequences whose answers are already recorded.
* DRYGNRYFWLDHNGVPF [ITC1] | 3.18
* ALNNAIPGGPKFEPLYP [PRP8] | 2.96

Quick batch: protein stability index for everything below.
1. NSSESDEEESNDEKQKA [RPN13]
2. FISAARYKPKSHLWEID [RPC37]
3. IYRGVLNDENSDDYDNE [SMC1]
4. KAIELLEKALQGATNEG [SRP72]
5. MVHLYSIVEECDARFDE [RPC17]
6. AMTIYWDDHTKKPLSMA [CDC53]

Completion:
[2.43, 3.06, 3.41, 1.14, 2.94, 2.67]
